- assayInfo: Inhibition of SOAT2 in CHO cell microsomal fraction using [1-14C]oleoyl-CoA as substrate measured after 5 mins by TLC based method
- Set-up: species or system Cricetulus griseus
# pIC50 per entry
Lab note — pIC50 values are minus log10 of concentrations in M.

C=C1CCC[C@H]2[C@](C)(Cc3cc(O)ccc3O)[C@@H](C)CC[C@]12C	4.85

input: Supply recorded pIC50 for CC1=CCC[C@H]2[C@](C)(Cc3cc(O)ccc3O)[C@@H](C)CC[C@]12C here.
output: 5.09

---

- measuredTarget: Sterol O-acyltransferase 1 (Chlorocebus aethiops, UniProt O77760)
- Sequence (O77760 whole entry): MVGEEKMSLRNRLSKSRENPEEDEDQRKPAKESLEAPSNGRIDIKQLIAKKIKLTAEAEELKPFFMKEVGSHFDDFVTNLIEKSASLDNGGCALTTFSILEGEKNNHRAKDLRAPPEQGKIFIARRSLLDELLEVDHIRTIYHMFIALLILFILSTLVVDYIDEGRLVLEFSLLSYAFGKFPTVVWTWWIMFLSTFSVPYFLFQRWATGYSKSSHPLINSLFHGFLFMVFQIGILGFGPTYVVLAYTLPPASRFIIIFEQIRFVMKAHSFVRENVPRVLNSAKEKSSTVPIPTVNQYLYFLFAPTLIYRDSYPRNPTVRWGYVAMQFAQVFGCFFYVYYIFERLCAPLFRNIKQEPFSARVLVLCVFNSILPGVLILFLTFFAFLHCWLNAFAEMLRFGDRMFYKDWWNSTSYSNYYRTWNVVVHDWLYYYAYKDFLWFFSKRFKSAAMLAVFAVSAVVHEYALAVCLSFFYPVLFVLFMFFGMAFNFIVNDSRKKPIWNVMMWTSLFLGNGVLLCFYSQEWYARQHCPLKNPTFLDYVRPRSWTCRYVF
- assayInfo: Inhibition of African green monkey SOAT1 expressed in CHO cells using [1-14C]oleic acid incubated for 6 hrs by TLC based method
# pIC50 per entry
Lab note — pIC50 values are minus log10 of concentrations in M.

CC1=CCC[C@H]2[C@](C)(Cc3cc(O)ccc3O)[C@@H](C)CC[C@]12C	4.85

Alright, here's another molecule for you.
input: Supply recorded pIC50 for C=C1CCC[C@H]2[C@](C)(Cc3cc(O)ccc3O)[C@@H](C)CC[C@]12C here.
output: 4.72

---

# pIC50 per entry
- measuredTarget: Sterol O-acyltransferase 1 (Cricetulus griseus, UniProt Q60457)
- Sequence (Q60457 whole entry): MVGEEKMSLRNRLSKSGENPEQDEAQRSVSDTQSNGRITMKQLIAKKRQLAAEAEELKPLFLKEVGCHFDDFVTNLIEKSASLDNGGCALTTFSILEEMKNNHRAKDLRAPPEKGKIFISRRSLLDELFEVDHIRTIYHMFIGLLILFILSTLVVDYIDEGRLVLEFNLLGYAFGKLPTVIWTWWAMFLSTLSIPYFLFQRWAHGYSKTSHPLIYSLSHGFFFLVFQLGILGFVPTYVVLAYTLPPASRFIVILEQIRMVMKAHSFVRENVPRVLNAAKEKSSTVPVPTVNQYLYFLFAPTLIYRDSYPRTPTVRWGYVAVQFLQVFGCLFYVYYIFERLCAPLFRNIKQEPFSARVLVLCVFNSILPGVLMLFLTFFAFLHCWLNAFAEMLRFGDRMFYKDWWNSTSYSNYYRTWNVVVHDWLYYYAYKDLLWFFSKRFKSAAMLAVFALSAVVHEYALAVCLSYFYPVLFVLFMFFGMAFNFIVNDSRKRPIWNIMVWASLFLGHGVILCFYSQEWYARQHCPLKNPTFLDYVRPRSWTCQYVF
- assayInfo: Inhibition of SOAT1 in CHO cell microsomal fraction using [1-14C]oleoyl-CoA as substrate measured after 5 mins by TLC based method
Lab note — pIC50 values are minus log10 of concentrations in M.

C=C1CCC[C@H]2[C@](C)(Cc3cc(O)ccc3O)[C@@H](C)CC[C@]12C	4.49

input: Please indicate recorded pIC50 of CC1=CCC[C@H]2[C@](C)(Cc3cc(O)ccc3O)[C@@H](C)CC[C@]12C [AVAROL] measured with Sterol O-acyltransferase 1 (Cricetulus griseus, UniProt Q60457).
output: 4.92
